Assay: APR_HepG2_CellCycleArrest_24hr: Apredica 24-hour HepG2 Assay for Cell Cycle Arrest (AID 2282905);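 further: cell cycle arrest scored as ratio of 2N to 4N nuclear DNA content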
Conditions: imaging, actives raise or lower the signal
The source made the active and inactive calls. How the source made its calls: active means hit-call score of the fitted dose curve at least 0.9, where 1 is the maximum; inactive means score below 0.9.
Outcome codes: active, inactive

# compound, label-value
rows = [
    ("CCO[Si](CCCNC(N)=O)(OCC)OCC", "inactive"),
    ("CC1=CC(=O)/C(=C(/C)O)C(=O)O1", "inactive"),
    ("NCc1cccc(C2CCN(C(=O)c3ccc(C#Cc4ccccc4F)o3)CC2)c1", "inactive"),
    ("CN(C[C@@H](CC[N+]12CCC(C3CCCCC3)(CC1)CC2)c1ccc(Cl)c(Cl)c1)C(=O)c1cc(C(F)(F)F)cc(C(F)(F)F)c1", "inactive"),
    ("CCCCOC(=O)CC(CC(=O)OCCCC)(OC(C)=O)C(=O)OCCCC", "inactive"),
    ("O=c1[nH]sc2ccccc12", "inactive"),
    ("O=C(O)Cc1cc(I)c(Oc2ccc(O)c(I)c2)c(I)c1", "inactive"),
    ("CC(C)(c1cc(Br)c(O)c(Br)c1)c1cc(Br)c(O)c(Br)c1", "active"),
    ("COc1cc(C(=O)NC2CCN(C)CC2)ccc1Nc1ncc2c(n1)N(C1CCCC1)CC(F)(F)C(=O)N2C", "inactive"),
    ("O=C(O)c1ccccc1C(=O)OCc1ccccc1", "inactive"),
    ("COCC(C)OCC(C)OCC(C)O (centres undefined)", "inactive"),
    ("CC(C)(O)c1ccc(CNC(=O)c2cccnc2Oc2ccc3nonc3c2)cc1", "inactive"),
    ("OC12N=C(c3ccccc3)SC1Cc1cc(Cl)ccc12 (centres undefined)", "inactive"),
    ("Cc1ccc2oc(CN(Cc3ccccc3)C(=O)Nc3c(F)cc(F)cc3F)c(-c3ccc(Cl)cc3)c2c1", "inactive"),
    ("O=c1c(-c2ccc(O)cc2)coc2cc(O)cc(O)c12", "active"),
    ("NC(=O)c1nc(-c2cccc(-c3cc(F)ccc3OCC(F)(F)C(F)(F)F)c2)n[nH]1", "inactive"),
    ("C[C@]12CC[C@@H]3c4ccc(O)cc4CC[C@H]3[C@@H]1CC[C@H]2O", "inactive"),
    ("COc1ccc2cc(S(=O)(=O)N[C@H](CC(=O)N[C@H](Cc3ccc(CN4[C@H](C)CCC[C@@H]4C)cc3)C(=O)N(C)C(C)C)c3ccc4c(c3)OCO4)ccc2c1", "inactive"),
    ("CN1C(=O)CC[C@H]1c1cccnc1", "inactive"),
    ("CN(C)c1ccc(C(=C2C=CC(=[N+](C)C)C=C2)c2ccc(N(C)C)cc2)cc1", "active"),
    ("C[C@]12CC[C@@H]3c4ccc(O)cc4CC[C@H]3[C@@H]1CCC2=O", "inactive"),
    ("CC(=O)N1CCN(c2ccc(OC[C@H]3CO[C@](Cn4ccnc4)(c4ccc(Cl)cc4Cl)O3)cc2)CC1", "inactive"),
    ("CCN(Cc1cccc(S(=O)(=O)O)c1)c1ccc(C(=C2C=CC(=[N+](CC)Cc3cccc(S(=O)(=O)O)c3)C=C2)c2ccccc2S(=O)(=O)[O-])cc1", "inactive"),
    ("CC1(C)NC(=O)N(c2ccc([N+](=O)[O-])c(C(F)(F)F)c2)C1=O", "inactive"),
    ("O=C(OCCCCCCOC(=O)c1ccccc1)c1ccccc1", "inactive"),
    ("c1ccc(C[n+]2cccc3ccccc32)cc1", "active"),
    ("CN(C)C(=O)C1(N2CCCCC2)CCN(CC[C@@]2(c3ccc(Cl)c(Cl)c3)CN(C(=O)c3ccccc3)CCO2)CC1", "inactive"),
    ("CCN(Cc1cccnc1)C(=O)c1cccc(Cl)c1[C@]1(C)C(=O)N(Cc2ccc(OC)cc2OC)c2ccc(Cl)cc21", "inactive"),
    ("O=C1CCC(C2CCCCC2)CC1", "inactive"),
    ("CCCCCCCCN(C)CCCCCCCC", "inactive"),
    ("CCN(CC)C(=O)c1cc(S(=O)(=O)Cc2ccccc2)c(N2CCC(c3ccccc3)CC2)cc1N(CC)CCN(C)C", "active"),
    ("CCCCCc1ccc(N)cc1", "inactive"),
    ("CCCOC(=O)c1cc(O)c(O)c(O)c1", "inactive"),
    ("CCCC(=O)OCCC(C)C", "inactive"),
    ("Cc1cc(F)ccc1-c1cc(N2CC[C@@H](O)[C@H]2CO)ncc1N(C)C(=O)C(C)(C)c1cc(C(F)(F)F)cc(C(F)(F)F)c1", "inactive"),
    ("Cc1ccc(C(C)C)cc1", "inactive"),
    ("OCCO", "inactive"),
    ("Clc1ccccc1C(c1ccccc1)(c1ccccc1)n1ccnc1", "inactive"),
    ("Cc1cn([C@H]2C[C@H](N=[N+]=[N-])[C@@H](CO)O2)c(=O)[nH]c1=O", "inactive"),
]
